We begin with a simple list: items and their reported pIC50.
# testedOn: PRMT5-MTA (Homo sapiens)
# assayProcedure: Enzymatic inhibitory activity against PRMT5-MTA (AlphaScreen)
# Type: biochemical
# assayConditions: read-out: IC50
// field semantics: pIC50 = negative decimal log of concentration (mol/L)

Record excerpt, results attached:
Cc1cc2nc(N)c3cnn(C)c3c2cc1C(=O)N1CC(=O)CN1c1ncccc1F [Example 354]; 8.42
Cc1cc2cc(C(=O)N(Cc3ccc(C4(O)COC4)cn3)N(C)c3ncccn3)ccc2nc1N [Example 285]; 8.70
COC1CN(C(=O)c2cc3c(cc2C)nc(N)c2cnn(C)c23)N(c2cccc(F)n2)C1 (stereo not shown) [Example 449]; 8.28
Cc1cc2cc(C(=O)N(Cc3ccc(-c4cnn(C5CCC5)c4)cn3)N(C)c3ncccn3)ccc2nc1N [Example 149]; 8.54
Cc1cc2nc(N)c3cnn(C)c3c2cc1C(=O)N1CC(C)CN1c1ncccc1OC(F)(F)F (stereo not shown) [Example 334]; 8.04

Lookup: Using the record for Cc1cc2nc(N)c3cnn(C)c3c2cc1C(=O)N1CC(C)CN1c1ncc(-c2cnn(C(F)(F)F)c2)cc1F (stereo not shown) [Example 472] , state its measured pIC50.
Found: 8.34

Lookup: Using the record for Cc1cc2nc(N)c3cnccc3c2cc1C(=O)N1CC(C)CN1c1ncccc1F (stereo not shown) [Example 506] , state its measured pIC50.
Found: 8.24

Lookup: Using the record for Cc1cc2cc(C(=O)N(Cc3cccc(C(F)(F)F)n3)N(C)c3ncccn3)ccc2nc1N [Example 103] , state its measured pIC50.
Found: 8.54

Lookup: Using the record for COC1CN(C(=O)c2cc3c(cc2Cl)nc(N)c2cnn(C)c23)N(c2ncc(Br)cc2F)C1 (stereo not shown) [Example 439] , state its measured pIC50.
Found: 8.26

###

# testedOn: PRMT5-MTA (Homo sapiens, UniProt O14744)
# Sequence (O14744 whole entry): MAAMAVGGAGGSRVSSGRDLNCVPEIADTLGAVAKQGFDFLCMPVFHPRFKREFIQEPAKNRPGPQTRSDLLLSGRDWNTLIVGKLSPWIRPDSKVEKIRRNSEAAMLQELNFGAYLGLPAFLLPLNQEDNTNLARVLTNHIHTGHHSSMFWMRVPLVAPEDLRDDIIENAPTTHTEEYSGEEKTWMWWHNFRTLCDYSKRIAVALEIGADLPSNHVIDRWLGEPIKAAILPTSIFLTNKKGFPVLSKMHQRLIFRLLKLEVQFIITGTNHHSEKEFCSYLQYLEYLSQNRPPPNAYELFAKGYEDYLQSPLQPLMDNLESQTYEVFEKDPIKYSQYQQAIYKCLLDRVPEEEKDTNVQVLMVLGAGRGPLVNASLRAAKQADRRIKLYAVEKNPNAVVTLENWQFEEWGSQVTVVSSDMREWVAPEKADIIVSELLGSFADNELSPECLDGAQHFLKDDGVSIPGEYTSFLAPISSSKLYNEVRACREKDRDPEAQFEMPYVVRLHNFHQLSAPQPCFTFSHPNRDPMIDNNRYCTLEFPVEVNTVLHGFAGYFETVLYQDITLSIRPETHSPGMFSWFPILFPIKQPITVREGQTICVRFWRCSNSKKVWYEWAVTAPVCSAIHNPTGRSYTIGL
# Sequence (Q9BQA1 whole entry partner): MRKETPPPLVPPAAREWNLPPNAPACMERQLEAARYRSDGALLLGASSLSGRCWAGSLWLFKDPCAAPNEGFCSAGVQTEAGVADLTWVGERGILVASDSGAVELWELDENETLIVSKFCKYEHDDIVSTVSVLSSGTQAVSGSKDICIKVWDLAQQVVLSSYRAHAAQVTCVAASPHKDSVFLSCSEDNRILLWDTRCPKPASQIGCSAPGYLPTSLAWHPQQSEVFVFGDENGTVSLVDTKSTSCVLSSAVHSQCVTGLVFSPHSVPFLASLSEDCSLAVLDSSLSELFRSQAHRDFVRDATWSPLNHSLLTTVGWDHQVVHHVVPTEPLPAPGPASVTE
# assayProcedure: Enzymatic inhibitory activity against PRMT5-MTA (AlphaScreen)
# Type: biochemical
# assayConditions: read-out: IC50
measureName: IC50
Write the quantity with the unit trailing the number.

Record excerpt, results attached:
COc1cc2nc(N)c3cnn(C)c3c2cc1C(=O)N1CCCN1c1ncccc1F [Example 498]; 5 nM
Cc1cc2cc(C(=O)N(Cc3ccc(N4CCC(F)(F)C4)cn3)N(C)c3ncccn3)ccc2nc1N [Example 224]; 16 nM
Cn1ncc2c(N)nc3cc(Cl)c(C(=O)N4CC(C(F)(F)F)CN4c4ncccc4F)cc3c21 (stereo not shown) [Example 351]; 4.9 nM
Cc1cc2nc(N)c3cnn(C)c3c2cc1C(=O)N1CCCN1c1ncc(-c2cscn2)cc1F [Example 486]; 6.8 nM
Cc1cc2cc(C(=O)N(Cc3ccc(Br)cn3)N(c3ncccn3)C3CC3)ccc2nc1N [Example 82]; 2.2 nM

Lookup: Using the record for Cc1cc2cc(C(=O)N(Cc3ccc(C(F)(F)F)cn3)N(C)c3ncc4ncccc4n3)ccc2nc1N [Example 80] , state its measured IC50.
Found: 1.9 nM

Lookup: Using the record for Cc1cc2nc(N)c3cnn(C)c3c2cc1C(=O)N1CCCN1c1ccccn1 [Example 349] , state its measured IC50.
Found: 6.1 nM

Lookup: Using the record for COc1ccnc(N(C)N(Cc2ccc(C(F)(F)F)cn2)C(=O)c2ccc3nc(N)c(C)cc3c2)n1 [Example 76] , state its measured IC50.
Found: 1.6 nM

Lookup: Using the record for Cc1cc2cc(C(=O)N(Cc3ccc(-c4ccccn4)cn3)N(C)c3ncccn3)ccc2nc1N [Example 141] , state its measured IC50.
Found: 2.3 nM

Lookup: Using the record for Cc1cc2cc(C(=O)N(Cc3ccc(C(F)(F)F)cn3)N(C)c3ncc(Br)cn3)ccc2nc1N [Example 50] , state its measured IC50.
Found: 2.1 nM
